biological target: ZFP SBS#1211 (synthetic); assay: EMSA; settings: tags: MBP fusion
Sequence (chain, as listed by the source): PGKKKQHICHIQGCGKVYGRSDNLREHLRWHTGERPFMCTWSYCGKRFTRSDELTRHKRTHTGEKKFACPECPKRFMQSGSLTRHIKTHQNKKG
Parameter: pKd
Friendly reminder that pKd comes from taking -log10 of the concentration in mol/L.

Exercise: For the binder shown here, GCAGCGCAG (dsDNA) DNA 1: GCAGCGCAG DNA 2: CTGCGCTGC , give the reported pKd.
Solution: 8.19
